All values here come from patent US20130243795A1.

# studyTarget: T1, Human CD27 ECD truncated (ECD 1-121, cleavage site, His6) (human)
# T1 construct: also called human CD27 ECD with His Tag; CD27-His
# T1 chain: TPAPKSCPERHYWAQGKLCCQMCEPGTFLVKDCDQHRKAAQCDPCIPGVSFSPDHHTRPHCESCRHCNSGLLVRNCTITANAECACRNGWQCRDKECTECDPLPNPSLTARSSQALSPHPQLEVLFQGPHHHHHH
# testName: ProteOn SPR, culture supernatants
experimentalReadout: fold decrease in KD against the parental mAb M159 (fold)
Give bare numbers, in fold.

Q) # lookup: fold decrease in KD against the parental mAb M159 of M157 (antibody, human IgG4, V domains shown, also called H197,L220) VH: QVQLVQSGAEVKKPGASVKVSCKASGYAFSSSWMNWVRQAPGQGLEWMGRIYQGDGDTNYNGKFKGRVTMTRDTSTSTVYMELSSLRSEDTAVYYCARSDYYGDYGFAYWGQGTLVTVSS VL: DIQMTQSPSSLSASVGDRVTITCKASQSVDYAGDSYMNWYQQKPGKAPKLLIYAASNLESGVPSRFSGSGSGTDFTLTISSLQPEDFATYYCQQSNEDPYTFGQGTKVEIK
A) 6
